Quick reference: Relative binding activity, % of the listed items.
assayed.system: T1, Biotin-huCGRPaSA (human, not fully specified; biotin (position not given))
T1 construct: exact construct ('aSA') not explained; also called Biotin CGRPaSA; full-length (1-37) CGRP
T1 peptide: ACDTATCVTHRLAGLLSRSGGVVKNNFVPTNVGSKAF
assay: ELISA, supernatant; relative to chimeric C245
Answer format: numeric, % implied, no suffix.

>  <binder>
hu49 (antibody, V domains shown, 1F5 HC-2/2B8 LC2-2) VH: QVQLVQSGAEVKKPGASVKVSCKASGYTFTDFNMHWVRQAPGQRLEWMGYIYPYNGDVVYNQNFTNRVTLTVDTSSSTAYMELSSLRSEDTAVYYCAREGLGGYWGQGTLVTVSS VL: DVQLTQSPSFLSASVGDRVTITCQASQNIDGNTYMNWYQQKPGKAPKVLIYSIFNLESGVPSRFSGSGSGTEFTLTISSLQPEDFATYYCQQSNDYPYTFGQGTKLEIK

>  <measured.metric>
Relative binding activity, %

>  <test.value>
60

$$$$

Please report the recorded Relative binding activity, % for hu14 (antibody, V domains shown, 1B2 HC-2/1A2 LC2-1) VH: QVQLVQSGAEVKKPGASVKVSCKASGYTFTDYNMHWVRQAPGQRLEWMGYIFPYNGVAVYNRKFRSRVTLTVDTSSSTAYMELSSLRSEDTAVYYCAREGLGGYWGQGTLVTVSS VL: DIVLTQSPASLAVSPGQRATITCKASQNIDYDGYAYLNWYQQKPGQPPKVLIYSVFNLESGVPARFSGSGSGTDFTLTINPVEANDTANYYCQQSNEFPYTFGQGTKLEIK .
32
